Test system: CP265
test: qHTS profiling for inhibitors of Plasmodium falciparum proliferation (AID 504749); note: nearly all actives have a fitted effect of over 60% in size
stated_conditions: P. falciparum in erythrocytes, SYBR Green DNA, 72 h; series mostly up to 28.7 µM
Procedure: NIH National Institute of Allergy and Infectious Diseases [NIAID] NIH Chemical Genomics Center [NCGC] […] Because mature erythrocytes lack DNA, only Plasmodium-derived DNA is detected. NCGC Assay Protocol Summary: The SYBR Green viability assay was adapted from a method described previously (Plouffe et al., 2008). […] The following morning, fluorescence intensity at 485(14) nm excitation and 535(25) nm emission wavelengths was measured on an EnVision (Perkin Elmer) plate reader. […]
Inconclusive results are not listed. Calls of active or inactive are those of the source. Calls come from the whole dose curve; as a rule, active = well fitted inhibition curve with a large enough effect; inconclusive = small, poorly fitted or top-dose-only effect; inactive = flat fitted curve, though single readings scatter.
Valid outcomes are listed here; reply with one: active, inactive

Req: Please share the test call associated with "CN=C1C=CC(=C(c2ccc(N(C)C)cc2)c2ccc(N(C)C)cc2)C=C1" .
Resp: active

Req: Please share the test call associated with "CC(C)Cc1ccc([C@@H](C)C(=O)NS(C)(=O)=O)cc1" .
Resp: inactive

Req: Please share the test call associated with "O=C1NCCN1c1ncc([N+](=O)[O-])s1" .
Resp: inactive

Req: Please share the test call associated with "Nc1ccc(N=Nc2ccccc2)c(N)n1" .
Resp: inactive

Continuing:
Req: Please share the test call associated with "C[C@H](O)CN(C)C" .
Resp: inactive

Req: Please share the test call associated with "Cn1cc(NC(=O)c2cc(NC(=O)c3cc(NC=O)cn3C)cn2C)cc1C(=O)NCCC(=N)N" .
Resp: active

Req: Please share the test call associated with "Cc1ccccn1" .
Resp: inactive

###

System: CP238
test: qHTS profiling for inhibitors of Plasmodium falciparum proliferation (AID 504749); note: nearly all actives have a fitted effect of over 60% in size
stated_conditions: P. falciparum in erythrocytes, SYBR Green DNA, 72 h; series mostly up to 28.7 µM
Results filed as inconclusive are left out. Calls of active or inactive are those of the source. The call rests on the fitted dose curve; in most records, active means well fitted inhibition curve with a large enough effect; inconclusive means small, poorly fitted or top-dose-only effect; inactive means flat fitted curve, though single readings scatter.
Valid outcomes are listed here; reply with one: yes (active), no (inactive)

Worked examples follow.
Req: Please share the test call associated with "COc1ccc2nc(NC(=O)Nc3ccccc3)sc2c1" .
Resp: no

Req: Please share the test call associated with CCCCCCCCCCCCCC(=O)OCC(COP(=O)([O-])OCC[N+](C)(C)C)OC(=O)CCCCCCCCCCCCC (stereo unspecified) .
Resp: no

Req: Please share the test call associated with "CCCCCCCCCC(=O)NO" .
Resp: no

Req: Please share the test call associated with "COc1ccc2c(=O)c(C)c(-c3ccccc3)oc2c1CN(C)C" .
Resp: no

Req: Please share the test call associated with "CC1=CC(=C(c2ccc(N)cc2)c2ccc(N)cc2)C=CC1=N" .
Resp: yes

Req: Please share the test call associated with "CN(C)CCC=C1c2ccccc2C(C)(C)c2ccccc21" .
Resp: no

Req: Please share the test call associated with "CC(C)CCCCCCc1ccc(O)cc1" .
Resp: no

Req: Please share the test call associated with "CC(C)CCC[C@@H](C)[C@H]1CC[C@H]2[C@@H]3CC=C4C[C@@H](O)CC[C@]4(C)[C@H]3CC[C@]12C" .
Resp: no

Req: Please share the test call associated with "CC/C=C\C/C=C\C/C=C\CCCCCCCC(=O)O" .
Resp: no

Req: Please share the test call associated with "NC(=O)CC[C@@H]1NC(=O)[C@H](Cc2ccccc2)NC(=O)[C@H](Cc2ccc(O)cc2)NC(=O)[C@@H](N)CSSC[C@@H](C(=O)N2CCC[C@H]2C(=O)N[C@@H](CCCN=C(N)N)C(=O)NCC(N)=O)NC(=O)[C@H](CC(N)=O)NC1=O" .
Resp: no

Would you kindly look at the next entry?
Req: Please share the test call associated with "O=C(O)c1ccc(NC(=O)[C@H](Cc2ccc(O)cc2)NC(=O)c2ccccc2)cc1" .
Resp: no

###

test: Cell Viability - LYMP1-002 - Assay at 40 hr (AID 994); note: nearly all actives have a fitted effect of over 60% in size; note: potency is the fitted concentration of half-maximal effect
stated_conditions: LYMP1-002 lymphoblastoid cell viability; series mostly up to 92.2 µM
Results filed as inconclusive are left out. Calls of active or inactive are those of the source. Calls come from the whole dose curve; as a rule, active = well fitted cell-killing curve with a large enough effect; inconclusive = small, poorly fitted or top-dose-only effect; inactive = flat fitted curve, though single readings scatter.
measurement_type: Potency

// "O.O.O.O.O.O.O.O=S(=O)([O-])[O-].[Co+2]" : Potency value = inactive

// O=c1n(CC2CO2)c(=O)n(CC2CO2)c(=O)n1CC1CO1 (stereo unspecified) : Potency value = 7.94 µM (active)

// "CO" : Potency value = inactive

// "CC/C=C\C/C=C\C/C=C\CCCCCCCC(=O)O" : Potency value = inactive

// "ClC(Cl)Cl" : Potency value = inactive

Continuing:
// "C/C=C/C=C/C(=O)O" : Potency value = inactive

###

System: ICS
test: qHTS profiling for inhibitors of Plasmodium falciparum proliferation (AID 504749); note: nearly all actives have a fitted effect of over 60% in size
stated_conditions: P. falciparum in erythrocytes, SYBR Green DNA, 72 h; series mostly up to 28.7 µM
Inconclusive results are not listed. Active and inactive are the calls of the source. Calls come from the whole dose curve; as a rule, active = well fitted inhibition curve with a large enough effect; inconclusive = small, poorly fitted or top-dose-only effect; inactive = flat fitted curve, though single readings scatter.
Valid outcomes are listed here; reply with one: yes for active, no for inactive

Worked examples follow.
Req: Please share the test call associated with "Cc1cc(-c2ccc(N=Nc3ccc4c(S(=O)(=O)O)cc(S(=O)(=O)O)c(N)c4c3O)c(C)c2)ccc1N=Nc1ccc2c(S(=O)(=O)O)cc(S(=O)(=O)O)c(N)c2c1O" .
Resp: no

Req: Please share the test call associated with "COc1ccc(/C=C/C(=O)OCCC(C)C)cc1" .
Resp: no

Req: Please share the test call associated with "Oc1cc(O)cc(O)c1" .
Resp: no

Req: Please share the test call associated with "CCN(CC)CCOc1ccc2nc(N(C)C)sc2c1" .
Resp: no

Req: Please share the test call associated with "CC(C)(CO)[C@@H](O)C(=O)NCCC(=O)NCCSSCCNC(=O)CCNC(=O)[C@H](O)C(C)(C)CO" .
Resp: no

Continuing:
Req: Please share the test call associated with "O=C(O)COc1ccccc1/C=N/NC(=O)c1ccncc1" .
Resp: no

Req: Please share the test call associated with "Cc1ncc(COP(=O)(O)O)c(CN)c1O" .
Resp: no

Req: Please share the test call associated with "CCCCC[C@H](O)/C=C/[C@H]1[C@H](O)CC(=O)[C@@H]1C/C=C\CCCC(=O)O" .
Resp: no

Req: Please share the test call associated with c1ccc2c(c1)OCC(CN1CCCCC1)O2 (centres undefined) .
Resp: no

Req: Please share the test call associated with CC(C)c1nc(N(C)S(C)(=O)=O)nc(-c2ccc(F)cc2)c1/C=C/C(O)CC(O)CC(=O)O (centres undefined) .
Resp: no

Req: Please share the test call associated with "O=C(O)Cc1cc(I)c(Oc2ccc(O)c(I)c2)c(I)c1" .
Resp: no

###

target_desc: Estrogen receptor (Homo sapiens) (UniProt P03372)
Sequence (P03372 whole entry, looked up): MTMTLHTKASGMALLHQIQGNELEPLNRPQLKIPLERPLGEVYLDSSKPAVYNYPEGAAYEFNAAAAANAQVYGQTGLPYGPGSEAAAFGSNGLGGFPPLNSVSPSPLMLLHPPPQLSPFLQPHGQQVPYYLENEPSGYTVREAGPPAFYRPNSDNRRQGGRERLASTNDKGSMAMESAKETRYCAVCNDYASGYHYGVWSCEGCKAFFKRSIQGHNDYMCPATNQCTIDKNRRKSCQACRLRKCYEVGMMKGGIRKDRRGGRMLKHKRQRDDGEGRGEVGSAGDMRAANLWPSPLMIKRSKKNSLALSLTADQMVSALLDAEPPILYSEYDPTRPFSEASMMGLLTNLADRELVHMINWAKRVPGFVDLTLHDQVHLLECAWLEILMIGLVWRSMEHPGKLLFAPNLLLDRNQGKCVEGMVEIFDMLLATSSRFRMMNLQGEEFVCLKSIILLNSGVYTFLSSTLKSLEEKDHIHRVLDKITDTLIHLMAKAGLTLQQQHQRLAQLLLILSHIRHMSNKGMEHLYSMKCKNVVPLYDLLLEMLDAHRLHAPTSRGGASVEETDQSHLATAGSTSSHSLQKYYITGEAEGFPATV
test: qHTS assay for small molecule agonists of estrogen receptor alpha signaling (AID 588514); note: nearly all actives have a fitted effect of over 70% in size
stated_conditions: ER-alpha-UAS-bla HEK293, beta-lactamase ratio, 18 h; series mostly up to 76.8 µM
Records with an inconclusive call do not appear. Active and inactive are the calls of the source. Calls follow the shape of the full dose curve.
measurement_type: outcome

// "Nc1ncnc2c1ncn2[C@H]1CC[C@@H](CO)O1" : outcome value = inactive

// "C[C@H](CCC(=O)O)[C@H]1CC[C@H]2[C@@H]3CC[C@@H]4C[C@H](O)CC[C@]4(C)[C@H]3C[C@H](O)[C@]12C" : outcome value = inactive

// "CC/C=C\C/C=C\C/C=C\CCCCCCCC(=O)O" : outcome value = inactive

###

test: qHTS assay for small molecule antagonists of the retinoid-related orphan receptor gamma (ROR-gamma) signaling pathway - cell viability counter screen (AID 720652);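 note: CHO reporter cells with doxycycline-induced ROR-gamma expression; compound exposure lasted 16 hr before ATP read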
stated_conditions: RORgamma reporter cell line viability counter screen; series mostly up to 92.2 µM
Inconclusive results are not listed. Activity calls are given as the source filed them. Calls follow the shape of the dose curve; as a rule, active = well fitted cell-killing curve with a large enough effect in the repeat runs; inconclusive = weak or mixed curves, or effect the other way; inactive = flat fitted curve, though single readings scatter.
measurement_type: outcome

Observe how each entry below is paired with its result.
// "C[C@H](CCC(=O)O)[C@H]1CC[C@H]2[C@@H]3[C@H](O)C[C@@H]4C[C@H](O)CC[C@]4(C)[C@H]3C[C@H](O)[C@]12C" : outcome value = inactive

// "NC(N)=O" : outcome value = inactive

// "CO/N=C(/C(=O)N[C@@H]1C(=O)N2C(C(=O)O)=C(COC(N)=O)CS[C@H]12)c1ccco1" : outcome value = inactive

// "OB(O)O" : outcome value = inactive

# ---- query compound ----
// "OCl" : outcome value = inactive

###

System: CP194
test: qHTS profiling for inhibitors of Plasmodium falciparum proliferation (AID 504749); note: nearly all actives have a fitted effect of over 60% in size
stated_conditions: P. falciparum in erythrocytes, SYBR Green DNA, 72 h; series mostly up to 28.7 µM
Inconclusive results are not listed. The source made the active and inactive calls. The call rests on the fitted dose curve; in most records, active means well fitted inhibition curve with a large enough effect; inconclusive means small, poorly fitted or top-dose-only effect; inactive means flat fitted curve, though single readings scatter.
Valid outcomes are listed here; reply with one: active, inactive

Worked examples follow.
Req: Please share the test call associated with "OCl" .
Resp: inactive

Req: Please share the test call associated with "O=P(O)(O)O" .
Resp: inactive

Req: Please share the test call associated with "C[C@H](N)C(=O)N[C@@H](C)P(=O)(O)O" .
Resp: inactive

Req: Please share the test call associated with "CC1=CC(=C(c2ccc(N)cc2)c2ccc(N)cc2)C=CC1=N" .
Resp: active

Req: Please share the test call associated with CC12CCC(C[N+](C)(CCC[N+](C)(C)C)C1)C2(C)C (stereo not drawn) .
Resp: inactive

Continuing:
Req: Please share the test call associated with "C=CCOc1ccc(CC(=O)O)cc1Cl" .
Resp: inactive

Req: Please share the test call associated with "O=C1CCC(=O)N1CO" .
Resp: inactive
